Reference source for all entries: ChEMBL document CHEMBL1201862

# assayed-target: Nonstructural protein 1 (Influenza A virus, UniProt Q194T2)
# Sequence (Q194T2 whole entry): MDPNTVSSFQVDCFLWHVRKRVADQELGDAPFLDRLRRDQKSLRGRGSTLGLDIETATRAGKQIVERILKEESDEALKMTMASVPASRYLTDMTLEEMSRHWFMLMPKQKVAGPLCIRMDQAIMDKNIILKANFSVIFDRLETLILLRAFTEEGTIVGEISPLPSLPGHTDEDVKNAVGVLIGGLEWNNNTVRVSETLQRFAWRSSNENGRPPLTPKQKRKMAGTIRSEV
# Assay type: functional, Influenza A virus (A/California/07/2009(H1N1))
The source made the active and inactive calls.
quantity: IC50

Sample records with IC50:
>  <chemical-string>
COC(CNC(=O)c1ccc2c3c(onc13)-c1ccccc1C2=O)OC

>  <assayed-target>
Nonstructural protein 1 (Influenza A virus, UniProt Q194T2)

>  <IC50>
82.4 µM (active)

$$$$
>  <chemical-string>
C[C@@H]1NC(=O)N[C@@H]1CCCCCC(=O)O

>  <assayed-target>
Nonstructural protein 1 (Influenza A virus, UniProt Q194T2)

>  <IC50>
1.57 µM (active)

$$$$
>  <chemical-string>
CC1CCN(C(=O)c2ccc3c(c2NCCO)C(=O)c2ccccc2C3=O)CC1

>  <assayed-target>
Nonstructural protein 1 (Influenza A virus, UniProt Q194T2)

>  <IC50>
24.5 µM (active)

$$$$
>  <chemical-string>
CN(CC(=O)O)Cc1nc2ccccc2[nH]1

>  <assayed-target>
Nonstructural protein 1 (Influenza A virus, UniProt Q194T2)

>  <IC50>
11.6 µM (active)

$$$$
>  <chemical-string>
CN1CCC(=O)N(CCOc2ccccc2)CC1

>  <assayed-target>
Nonstructural protein 1 (Influenza A virus, UniProt Q194T2)

>  <IC50>
18.9 µM (active)

$$$$
>  <chemical-string>
Nc1nc(-c2ccccn2)nc(N)c1Cc1ccccc1F

>  <assayed-target>
Nonstructural protein 1 (Influenza A virus, UniProt Q194T2)

>  <IC50>
6.51 µM (active)

$$$$

O=C1C(Cl)=C(N2CCCCC2)C(=O)C(Cl)=C1c1cnc(N2CCCCC2)s1 has a reported IC50 of 21.4 µM (active)

COC1=C(Nc2ccc(OC)cc2)C(=O)c2ccccc2C1=O has a reported IC50 of 9.3 µM (active)

====

Here the recorded IC50 is given for each entry.
# assayed-target: Fatty acid synthase (Homo sapiens)
# Sequence (P49327 whole entry): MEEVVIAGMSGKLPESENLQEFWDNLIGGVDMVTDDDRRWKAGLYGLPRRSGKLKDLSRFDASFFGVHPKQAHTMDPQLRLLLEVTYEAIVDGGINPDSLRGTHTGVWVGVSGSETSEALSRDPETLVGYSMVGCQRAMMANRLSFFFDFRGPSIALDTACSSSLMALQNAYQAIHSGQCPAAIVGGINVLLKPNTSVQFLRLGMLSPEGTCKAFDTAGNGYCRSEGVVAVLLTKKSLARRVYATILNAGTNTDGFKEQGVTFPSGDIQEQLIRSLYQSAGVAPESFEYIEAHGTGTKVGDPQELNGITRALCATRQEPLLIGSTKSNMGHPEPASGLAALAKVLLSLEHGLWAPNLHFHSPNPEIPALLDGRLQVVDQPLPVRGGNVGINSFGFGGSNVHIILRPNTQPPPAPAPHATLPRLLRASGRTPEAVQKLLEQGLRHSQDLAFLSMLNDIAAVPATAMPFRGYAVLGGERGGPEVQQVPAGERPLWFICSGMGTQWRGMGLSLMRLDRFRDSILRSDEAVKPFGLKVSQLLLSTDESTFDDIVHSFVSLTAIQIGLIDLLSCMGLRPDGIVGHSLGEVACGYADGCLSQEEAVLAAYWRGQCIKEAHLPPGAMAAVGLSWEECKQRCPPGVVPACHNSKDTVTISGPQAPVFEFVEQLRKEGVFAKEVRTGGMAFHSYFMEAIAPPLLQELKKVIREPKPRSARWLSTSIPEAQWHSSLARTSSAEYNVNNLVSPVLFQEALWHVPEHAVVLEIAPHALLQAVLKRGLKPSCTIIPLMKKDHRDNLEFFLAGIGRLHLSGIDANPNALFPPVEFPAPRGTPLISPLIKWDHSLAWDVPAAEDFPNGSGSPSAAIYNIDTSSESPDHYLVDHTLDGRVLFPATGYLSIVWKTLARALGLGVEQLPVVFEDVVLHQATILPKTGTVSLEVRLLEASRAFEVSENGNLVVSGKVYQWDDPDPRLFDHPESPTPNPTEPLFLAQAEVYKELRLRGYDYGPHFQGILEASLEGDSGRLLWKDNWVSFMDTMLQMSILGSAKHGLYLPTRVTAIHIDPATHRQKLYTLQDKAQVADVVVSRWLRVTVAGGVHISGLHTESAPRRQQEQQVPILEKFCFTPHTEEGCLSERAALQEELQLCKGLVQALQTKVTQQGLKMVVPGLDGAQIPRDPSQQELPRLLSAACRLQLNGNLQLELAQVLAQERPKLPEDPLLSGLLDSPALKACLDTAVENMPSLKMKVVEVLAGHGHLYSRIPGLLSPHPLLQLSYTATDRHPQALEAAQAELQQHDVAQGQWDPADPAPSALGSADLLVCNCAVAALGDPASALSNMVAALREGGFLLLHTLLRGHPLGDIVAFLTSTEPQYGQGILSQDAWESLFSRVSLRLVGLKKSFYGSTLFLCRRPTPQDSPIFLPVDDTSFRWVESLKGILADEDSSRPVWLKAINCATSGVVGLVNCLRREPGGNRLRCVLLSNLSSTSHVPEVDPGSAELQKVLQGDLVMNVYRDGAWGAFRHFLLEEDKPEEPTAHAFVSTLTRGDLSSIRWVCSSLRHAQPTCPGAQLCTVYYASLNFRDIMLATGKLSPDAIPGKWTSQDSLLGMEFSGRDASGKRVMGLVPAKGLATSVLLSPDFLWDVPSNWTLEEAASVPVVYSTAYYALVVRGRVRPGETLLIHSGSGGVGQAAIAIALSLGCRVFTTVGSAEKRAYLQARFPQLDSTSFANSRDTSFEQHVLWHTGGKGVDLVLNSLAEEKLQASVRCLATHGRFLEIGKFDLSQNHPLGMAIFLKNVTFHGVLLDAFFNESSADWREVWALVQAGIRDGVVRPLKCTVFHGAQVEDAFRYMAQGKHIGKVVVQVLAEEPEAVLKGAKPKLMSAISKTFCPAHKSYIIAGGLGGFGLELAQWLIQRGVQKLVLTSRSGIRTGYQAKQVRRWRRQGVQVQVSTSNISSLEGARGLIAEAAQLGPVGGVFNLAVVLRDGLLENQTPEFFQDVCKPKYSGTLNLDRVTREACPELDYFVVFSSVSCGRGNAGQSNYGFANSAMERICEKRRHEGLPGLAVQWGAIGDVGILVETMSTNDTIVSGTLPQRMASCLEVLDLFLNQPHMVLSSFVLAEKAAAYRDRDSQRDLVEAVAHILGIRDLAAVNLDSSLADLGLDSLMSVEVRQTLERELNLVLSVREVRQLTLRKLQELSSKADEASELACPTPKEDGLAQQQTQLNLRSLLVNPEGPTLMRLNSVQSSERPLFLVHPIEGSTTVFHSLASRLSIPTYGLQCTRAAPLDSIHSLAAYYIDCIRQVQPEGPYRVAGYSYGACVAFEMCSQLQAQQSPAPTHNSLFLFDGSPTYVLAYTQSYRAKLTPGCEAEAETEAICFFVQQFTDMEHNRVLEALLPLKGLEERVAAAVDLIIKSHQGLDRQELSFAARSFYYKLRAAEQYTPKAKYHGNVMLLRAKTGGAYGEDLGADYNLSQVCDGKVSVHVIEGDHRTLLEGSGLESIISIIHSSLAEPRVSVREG
# measurement-protocol: inhibition of human FAS-TE enzyme activity – biochemical, kinetic fluorescence intensity, dose response (AID 624326);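 also: rate of fluorescence rise from hydrolysis of a fluorogenic O-methyl fluorescein ester substrate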
# Type: functional
The source made the active and inactive calls.

>  <compound>
COC(=O)C1CCN(C(=O)COC(=O)c2cc([N+](=O)[O-])ccc2N2CCOCC2)CC1

>  <IC50>
3.96 µM (active)

$$$$
>  <compound>
CC(C)(C)c1ccc(OCCSc2nc3ccccc3n2CC(=O)O)cc1

>  <IC50>
2.14 µM (active)

$$$$
>  <compound>
CN1C[C@H](C(=O)N[C@]2(C)O[C@@]3(O)[C@@H]4CCCN4C(=O)[C@H](Cc4ccccc4)N3C2=O)CC2c3cccc4[nH]cc(c34)C[C@H]21 (some centres undefined)

>  <IC50>
15.6 µM (active)

$$$$
>  <compound>
CC(=O)c1cccc(OC(=O)Oc2cccc(C(C)=O)c2)c1

>  <IC50>
6.11 µM (active)

$$$$
>  <compound>
O=C(COC(=O)c1cc([N+](=O)[O-])ccc1N1CCCC1)Nc1ccccc1OC(F)F

>  <IC50>
9.1 µM (active)

$$$$
>  <compound>
O=C(NC1CCCCC1)C1CC(=O)N(c2cccc([N+](=O)[O-])c2)C1 (centres undefined)

>  <IC50>
1.89 µM (active)

$$$$
>  <compound>
COc1ccc([C@H]2CC(=O)C=C(c3ccc(C)c([N+](=O)[O-])c3)C2)cc1

>  <IC50>
2.14 µM (active)

$$$$
>  <compound>
O=C(Nc1ccc(Cl)cc1)C(Cl)C(=O)c1ccccc1 (centres undefined)

>  <IC50>
4.67 µM (active)

$$$$

Next up:
COc1cc(-c2ccc(Nc3ccccc3C(=O)O)c(OC)c2)ccc1Nc1ccccc1C(=O)O has a reported IC50 of 6.68 µM (active)
